Molecular target: MAPK14 (human) (UniProt Q16539)
Sequence (Q16539 whole entry, looked up): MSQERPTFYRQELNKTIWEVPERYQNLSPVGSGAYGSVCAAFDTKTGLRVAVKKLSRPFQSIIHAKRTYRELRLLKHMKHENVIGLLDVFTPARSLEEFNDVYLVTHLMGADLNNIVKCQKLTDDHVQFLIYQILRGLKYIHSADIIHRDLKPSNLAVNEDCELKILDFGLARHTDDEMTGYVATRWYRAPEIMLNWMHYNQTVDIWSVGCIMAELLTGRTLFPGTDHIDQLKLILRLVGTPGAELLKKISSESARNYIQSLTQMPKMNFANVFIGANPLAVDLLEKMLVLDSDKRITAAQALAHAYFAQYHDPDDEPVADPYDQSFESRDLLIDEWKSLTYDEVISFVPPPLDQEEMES
Test: radiometric filter-binding kinase assay, Kinase HotSpot
Conditions: compound 0.5 µM; ATP 10 µM
reported-endpoint: residual activity (%)
Supply the numeric figure in %, leaving out any unit text.

Here are 5 compounds together with their reported answers.
> print(dat)
                                smiles.data  reported.endpoint  result.number
1  c1ccc(-c2cnc(Nc3ccc(OCCN4CCCC4)cc3)s2)cc1  residual activity            103
2          COc1cccc(-c2cc(=O)c3ccccc3o2)c1N  residual activity           76.2
3    N#Cc1c(NC(=O)c2cccc3ccccc23)sc2c1CCCC2  residual activity           98.1
4  COc1cc2c(N3CCN(C(=O)Nc4ccc(OC(C)C)cc4)CC3)ncnc2cc1OCCCN1CCCCC1  residual activity           94.1
5  O=c1[nH]c2ccccc2n1C1CCN(Cc2ccc(-c3nc4cc5[nH]cnc5cc4nc3-c3ccccc3)cc2)CC1  residual activity           99.7

We now examine a further compound.
Tested on MAPK14 (human) (UniProt Q16539): "O=C1NC(=O)c2c1c1c3ccccc3[nH]c1c1[nH]c3cc(Br)ccc3c21" . Observed residual activity: 90.6
